test system: rat DGAT2 mRNA; experiment: Dose-dependent inhibition of DGAT2 in A10 cells (Tables 82, 83); assay type: cell-based; settings: 16.67 nM (Table 83)
Strand notation (5' to 3'): a small letter for the sugar, then the base; units joined by * are phosphorothioate-linked, units joined directly phosphodiester-linked; [ ] holds rarer units or linkages, { } end groups; capitals alone tell only the bases. e = 2'-O-(2-methoxyethyl) (MOE); [5mC] = 5-methylcytosine; d = 2'-deoxy (DNA)

>  <SUBSTANCE>
372530 (antisense eT*e[5mC]*eG*dG*d[5mC]*d[5mC]*d[5mC]*d[5mC]*dA*dG*dG*dA*dG*e[5mC]*e[5mC]*e[5mC]) [compound 372530]

>  <percent inhibition of rat DGAT2 [%]>
10

$$$$
>  <SUBSTANCE>
372602 (antisense e[5mC]*e[5mC]*dA*dG*dG*d[5mC]*dA*dT*dG*dG*dA*dG*e[5mC]*eT) [compound 372602]

>  <percent inhibition of rat DGAT2 [%]>
0

$$$$
>  <SUBSTANCE>
372503 (antisense eG*e[5mC]*eA*dG*dG*dT*dT*dG*dT*dG*dT*dG*dT*e[5mC]*eT*eT) [compound 372503]

>  <percent inhibition of rat DGAT2 [%]>
25

$$$$
>  <SUBSTANCE>
372500 (antisense eG*eT*eG*dT*dG*dT*d[5mC]*dT*dT*d[5mC]*dA*d[5mC]*d[5mC]*eA*eG*e[5mC]) [compound 372500]

>  <percent inhibition of rat DGAT2 [%]>
18

$$$$
>  <SUBSTANCE>
372618 (antisense eG*eT*dG*dG*dT*dA*d[5mC]*dA*dG*dG*dT*d[5mC]*eG*eA) [compound 372618]

>  <percent inhibition of rat DGAT2 [%]>
0

$$$$
>  <SUBSTANCE>
372524 (antisense eG*e[5mC]*e[5mC]*dA*dG*dG*d[5mC]*dA*dT*dG*dG*dA*dG*e[5mC]*eT*e[5mC]) [compound 372524]

>  <percent inhibition of rat DGAT2 [%]>
30

$$$$

----------
Measured % Inhibition, listed per entry for reference.
tested on: PTP1B mRNA; experiment: Dose response for human PTP1B in HuVEC cells, PPS 198 and PPS 3000 (Tables 86, 87); assay type: cell-based; details: PPS 198, 30.0 nM
Strand notation (5' to 3'): a small letter for the sugar, then the base; units joined by * are phosphorothioate-linked, units joined directly phosphodiester-linked; [ ] holds rarer units or linkages, { } end groups; capitals alone tell only the bases. e = 2'-O-(2-methoxyethyl) (MOE); [5mC] = 5-methylcytosine; d = 2'-deoxy (DNA)
MEASURE: % Inhibition (%)

>  <SUBSTANCE>
399173 (eA*eT*dG*d[5mC]*dT*dA*dG*dT*dG*d[5mC]*dA*d[5mC]*eT*eA; antisense) [compound 399173]

>  <ENDPOINT VALUE>
89

$$$$
>  <SUBSTANCE>
399096 (eT*eG*d[5mC]*dT*d[5mC]*dG*dA*dA*d[5mC]*dT*d[5mC]*d[5mC]*eT*eT; antisense) [compound 399096]

>  <ENDPOINT VALUE>
96

$$$$
>  <SUBSTANCE>
399113 (eG*eT*dT*dA*dG*dG*d[5mC]*dA*dA*dA*dG*dG*eG*e[5mC]; antisense) [compound 399113]

>  <ENDPOINT VALUE>
90

$$$$
>  <SUBSTANCE>
399132 (eG*eG*dG*d[5mC]*dT*dG*dA*dG*dT*dG*dA*d[5mC]*e[5mC]*e[5mC]; antisense) [compound 399132]

>  <ENDPOINT VALUE>
95

$$$$
>  <SUBSTANCE>
399102 (eG*eA*dA*dG*dT*d[5mC]*dA*d[5mC]*dT*dG*dG*d[5mC]*eT*eT; antisense) [compound 399102]

>  <ENDPOINT VALUE>
88

$$$$
>  <SUBSTANCE>
398105 (eT*eG*d[5mC]*dA*d[5mC]*dA*dG*dG*d[5mC]*dA*dG*dG*eT*eT) [compound 398105]

>  <ENDPOINT VALUE>
90

$$$$
>  <SUBSTANCE>
399208 (eA*eG*d[5mC]*dT*d[5mC]*dG*d[5mC]*dT*dA*d[5mC]*d[5mC]*dT*e[5mC]*eT; antisense) [compound 399208]

>  <ENDPOINT VALUE>
93

$$$$
>  <SUBSTANCE>
398173 (e[5mC]*dA*dG*d[5mC]*d[5mC]*dT*dG*dG*dG*d[5mC]*dA*e[5mC]) [compound 398173]

>  <ENDPOINT VALUE>
97

$$$$
>  <SUBSTANCE>
399301 (GTGTGCACACAGCT; all C 5-methyl, all phosphorothioate, sugars by position not given here; further chemistry not fully specified) [compound 399301]

>  <ENDPOINT VALUE>
97

$$$$
>  <SUBSTANCE>
398112 (e[5mC]*eA*dG*d[5mC]*d[5mC]*dT*dG*dG*d[5mC]*dA*d[5mC]*d[5mC]*eT*eA) [compound 398112]

>  <ENDPOINT VALUE>
93

$$$$
>  <SUBSTANCE>
399276 (eG*eA*dG*dG*dT*dA*dT*d[5mC]*d[5mC]*d[5mC]*dA*dT*e[5mC]*eT; antisense) [compound 399276]

>  <ENDPOINT VALUE>
89

$$$$
>  <SUBSTANCE>
399315 (antisense eG*eG*d[5mC]*dA*dA*d[5mC]*dT*dT*d[5mC]*dA*dA*d[5mC]*e[5mC]*eT) [compound 399315]

>  <ENDPOINT VALUE>
88

$$$$
>  <SUBSTANCE>
398120 (eG*eT*dT*d[5mC]*dA*dA*dG*d[5mC]*dG*dG*d[5mC]*d[5mC]*eT*eA) [compound 398120]

>  <ENDPOINT VALUE>
96

$$$$

----------
Measured % Inhibition, listed per entry for reference.
test system: PTP1B mRNA; assay: Dose response for human PTP1B in HuVEC cells, PPS 198 and PPS 3000 (Tables 86, 87); format: cell-based; details: PPS 3000, 3.33 nM
Strand notation (5' to 3'): a small letter for the sugar, then the base; units joined by * are phosphorothioate-linked, units joined directly phosphodiester-linked; [ ] holds rarer units or linkages, { } end groups; capitals alone tell only the bases. e = 2'-O-(2-methoxyethyl) (MOE); [5mC] = 5-methylcytosine; d = 2'-deoxy (DNA)

>  <SUBSTANCE>
398105 (eT*eG*d[5mC]*dA*d[5mC]*dA*dG*dG*d[5mC]*dA*dG*dG*eT*eT) [compound 398105]

>  <TGT>
PTP1B mRNA

>  <% Inhibition [%]>
35

$$$$
>  <SUBSTANCE>
399173 (eA*eT*dG*d[5mC]*dT*dA*dG*dT*dG*d[5mC]*dA*d[5mC]*eT*eA; antisense) [compound 399173]

>  <TGT>
PTP1B mRNA

>  <% Inhibition [%]>
11

$$$$
>  <SUBSTANCE>
398120 (eG*eT*dT*d[5mC]*dA*dA*dG*d[5mC]*dG*dG*d[5mC]*d[5mC]*eT*eA) [compound 398120]

>  <TGT>
PTP1B mRNA

>  <% Inhibition [%]>
35

$$$$
>  <SUBSTANCE>
399102 (eG*eA*dA*dG*dT*d[5mC]*dA*d[5mC]*dT*dG*dG*d[5mC]*eT*eT; antisense) [compound 399102]

>  <TGT>
PTP1B mRNA

>  <% Inhibition [%]>
9

$$$$
>  <SUBSTANCE>
399132 (eG*eG*dG*d[5mC]*dT*dG*dA*dG*dT*dG*dA*d[5mC]*e[5mC]*e[5mC]; antisense) [compound 399132]

>  <TGT>
PTP1B mRNA

>  <% Inhibition [%]>
26

$$$$
>  <SUBSTANCE>
399301 (GTGTGCACACAGCT; all C 5-methyl, all phosphorothioate, sugars by position not given here; further chemistry not fully specified) [compound 399301]

>  <TGT>
PTP1B mRNA

>  <% Inhibition [%]>
65

$$$$

----------
Measured % change in SGLT2 expression relative to saline, listed per entry for reference.
test system: mouse SGLT2 mRNA; assay: Mouse SGLT2 mRNA in kidney, 1-10-1 MOE gapmers, Balb/c mice (Table 65); type: in vivo; details: 50 nmol/kg i.p. twice per week for two weeks
Strand notation (5' to 3'): a small letter for the sugar, then the base; units joined by * are phosphorothioate-linked, units joined directly phosphodiester-linked; [ ] holds rarer units or linkages, { } end groups; capitals alone tell only the bases. e = 2'-O-(2-methoxyethyl) (MOE); [5mC] = 5-methylcytosine; d = 2'-deoxy (DNA)
MEASURE: % change in SGLT2 expression relative to saline (%)

>  <SUBSTANCE>
ISIS 370717: TAGCCACCAACT 1-10-1 MOE gapmer, phosphorothioate, SGLT-2 (sugars from the 5' end e1 d10 e1, all phosphorothioate, methylation of C not given here)

>  <ENDPOINT VALUE>
−47.5

$$$$
>  <SUBSTANCE>
ISIS 379692: 1-10-1 MOE gapmer, SGLT2 (eT*dG*dT*dT*d[5mC]*d[5mC]*dA*dG*d[5mC]*d[5mC]*d[5mC]*eA)

>  <ENDPOINT VALUE>
−52.5

$$$$
>  <SUBSTANCE>
ISIS 379699: GGCATGAGCTTC 1-10-1 MOE, SGLT2 (eG*dG*d[5mC]*dA*dT*dG*dA*dG*d[5mC]*dT*dT*e[5mC])

>  <ENDPOINT VALUE>
−42.5

$$$$
>  <SUBSTANCE>
ISIS 379702 (eG*d[5mC]*dA*d[5mC]*dA*d[5mC]*dA*dG*d[5mC]*dT*dG*e[5mC])

>  <ENDPOINT VALUE>
−52.5

$$$$
